# SYSTEM_UNDER_TEST: GST-PLK3 (Homo sapiens, UniProt Q9H4B4)
# Construct: purchased CarnaBio
# Sequence (Q9H4B4 whole entry): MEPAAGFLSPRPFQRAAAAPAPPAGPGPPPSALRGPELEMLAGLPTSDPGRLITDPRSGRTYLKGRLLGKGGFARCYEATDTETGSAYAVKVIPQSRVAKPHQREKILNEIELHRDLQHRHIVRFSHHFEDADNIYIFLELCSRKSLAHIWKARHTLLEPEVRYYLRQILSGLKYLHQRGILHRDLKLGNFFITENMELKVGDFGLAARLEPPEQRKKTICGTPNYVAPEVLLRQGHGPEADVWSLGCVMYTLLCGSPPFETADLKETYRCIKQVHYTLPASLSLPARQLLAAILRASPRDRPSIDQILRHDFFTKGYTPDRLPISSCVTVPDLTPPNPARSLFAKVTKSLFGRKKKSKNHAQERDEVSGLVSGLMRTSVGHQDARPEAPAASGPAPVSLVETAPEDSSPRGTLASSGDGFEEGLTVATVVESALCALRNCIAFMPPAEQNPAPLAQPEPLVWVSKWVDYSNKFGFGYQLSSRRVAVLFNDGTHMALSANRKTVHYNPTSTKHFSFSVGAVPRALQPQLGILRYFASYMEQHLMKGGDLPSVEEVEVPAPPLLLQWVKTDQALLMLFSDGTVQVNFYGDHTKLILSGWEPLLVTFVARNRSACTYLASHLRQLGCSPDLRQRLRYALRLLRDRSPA
# EXPERIMENT_NOTES: PLK TR-FRET peptide assay, PLK3
# Type: biochemical
# CONDITION_SUMMARY: PLK TR-FRET peptide assay, GST-PLK3; read-out: Plk3 IC50
pIC50: −log10 of the molar value.
# pIC50 values compiled below

The molecule identified as CCC1C(=O)N(C)c2cnc(-n3ccnc3-c3ccccc3)nc2N1N (stereo not shown) registered its pIC50 at 4.30 to 5.00

The molecule listed as CCC1C(=O)Nc2cnc(-n3ccnc3-c3ccccc3)nc2N1NC(=O)OC(C)(C)C (stereo not shown) has a reported pIC50 of < 4.30

`CC[C@]12COCCN1c1nc(-n3ccnc3-c3ccc(F)cn3)ncc1N(C)C2=O` has a reported pIC50 of < 4.30

# molecule CCC1C(=O)N(C)c2cnc(-c3c[nH]nc3-c3ccc(F)cc3F)nc2N1c1ccn(C)n1 (stereo not shown) ; its pIC50 = > 6.00
